tested target: Proto-oncogene tyrosine-protein kinase Src (Homo sapiens) (UniProt P12931)
Sequence (P12931 2-536 limits assumed): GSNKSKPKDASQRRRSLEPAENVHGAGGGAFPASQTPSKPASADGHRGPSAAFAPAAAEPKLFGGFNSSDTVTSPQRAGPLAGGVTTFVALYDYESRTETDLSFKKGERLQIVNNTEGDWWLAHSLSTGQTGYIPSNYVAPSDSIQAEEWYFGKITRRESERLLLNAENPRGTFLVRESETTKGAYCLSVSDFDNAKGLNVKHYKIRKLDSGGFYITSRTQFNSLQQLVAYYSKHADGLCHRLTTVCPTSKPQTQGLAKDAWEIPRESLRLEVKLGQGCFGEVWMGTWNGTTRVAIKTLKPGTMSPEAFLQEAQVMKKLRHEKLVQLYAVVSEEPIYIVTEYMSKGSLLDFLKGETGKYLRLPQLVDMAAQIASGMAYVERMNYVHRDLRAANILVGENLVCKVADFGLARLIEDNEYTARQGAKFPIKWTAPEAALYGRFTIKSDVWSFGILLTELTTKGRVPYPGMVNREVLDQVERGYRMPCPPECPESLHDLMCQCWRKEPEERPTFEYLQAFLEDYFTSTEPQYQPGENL
test name: Inhibition of Src at 10 uM by HTRF assay relative to control
quantity kind: inhibition (%)
Only the number, expressed in %, is required.

                                   compound  value
0  Clc1ccc2sc(CN3CCN(c4ncnc5c4CN(Cc4ccccc4)CC5)CC3)cc2c1      0
1  Cc1cccc(N(C)c2cc(Nc3cccc(C(=O)N4CCCC5CCCCC54)c3)ncn2)c1 (stereo not given)      3

Request the reported inhibition associated with Cc1cccc(Oc2ccnc(N3CCC[C@H]3C(=O)NCc3cccnc3)n2)c1
0

# lookup: inhibition of CN(C)CC(C)(C)CNC(=O)C1CCN(c2cc(N3CCOCC3)nc(N)n2)CC1
10

Which measured inhibition value corresponds to Cc1ccc(CN2CCN(c3nccc(C(C#N)c4ccccn4)n3)CC2)cc1 (stereo not given) ?
4

Need inhibition of Cc1cccc(N(C)c2cc(Nc3cccc(C(=O)NCc4ccncc4)c3)ncn2)c1 , thanks.
26

For CN(CCc1ccccn1)C(=O)c1cccc(Nc2nccc(Nc3ccc4ncsc4c3)n2)c1 , what is its reported inhibition?
69

What inhibition value was documented for this compound, Cc1cccc(N(C)c2cc(Nc3ccc(CC(=O)Nc4ccc5ncsc5c4)cc3)ncn2)c1 ?
6

Entry under review: O=C(NCc1ccncc1)c1cccc(Nc2cc(Nc3cccc(Br)c3)ncn2)c1 . Reported inhibition?
30

Reported inhibition for Nc1nc(Nc2ccc3ncsc3c2)cc(N2CCC[C@H]2C(=O)NCCc2cccc(I)c2)n1 : what is it?
0
